# Test system: DU-145 prostate
# experimentDescription: NCI-60 one-dose screen, 48 h (100 = growth as untreated, 0 = no growth, -100 = all killed)
# statedConditions: 10 µM unless noted
Compounds without any hit were thinned out: in the full panel of roughly 83,000, 20% have a hit.
valueType: growth (%)
All answers are understood in %, so give the number only.

compound	tgt	unitString	reportedMeasurement
O=[As](O)(O)c1ccccc1[As](=O)(O)O	DU-145 prostate	%	109

Memo: CCOP(=O)(NC[C@H]1O[C@](O)(CO)[C@@H](O)[C@@H]1O)OCC , reported growth: 105

// field: growth; key: CCC1(C)CC(CCNCc2ccccc2O)(c2ccc(C)cc2)CCO1 (stereo not given) ; value = 103

// field: growth; key: Clc1cc(N2CC2)nc(N2CC2)n1 ; value = 52.5

The compound listed as COc1ccc(C(=O)c2cc(OC)c(OC)c(OC)c2)cc1OC(C)=O shows growth equal to 4.78

Form: compound = CC[C@H](C)[C@H](NC(=O)[C@H]1CCCCN1C)C(=O)N(C)[C@H](C[C@@H](OC(C)=O)c1nc(C(=O)NC23CC(C(=O)OC)(C2)C3)cs1)C(C)C ; growth = -5.33

Noted for CN1C(=O)C(=Cc2cn(CCCCCCn3c4ccccc4c(=O)c4ccccc43)c3ccccc23)C(=O)N(C)C1=O : its growth reads 105

Form field growth, entry COc1ccc([As]=[As]c2ccc(OC)c(NCS(=O)(=O)O)c2)cc1NCS(=O)(=O)O (stereo not given) : 43.1

// CCCCCCC(=O)NC1=C(N2CC2)C(=O)C(NC(=O)CCCCCC)=C(N2CC2)C1=O : growth value = 15.6

response.value for N/C(=N\N=C\c1ccc(-c2ccccc2)cc1)N[N+](=O)[O-] (field: growth) = 33.4

###

# Tested on: CAKI-1 renal
# experimentDescription: NCI-60 one-dose screen, 48 h (100 = growth as untreated, 0 = no growth, -100 = all killed)
# statedConditions: 10 µM unless noted
About 83,000 compounds went through this panel and 20% of them were active in at least one assay; those are over-represented in the sample as a whole.
valueType: growth (%)
Note: unit % is implicit; provide only the numeric part.

Check out these entries, answers already filled in.
compound	unitString	growth
CN(C)CC(C(=O)Cc1ccccc1)c1ccccc1 (stereo unspecified)	%	82.1
O=C(CC1(O)C(=O)Nc2ccccc21)c1ccc(C(=O)NCC2CCC3(CC2)OOC2(CCCCC2)OO3)cc1 (stereo unspecified)	%	39.5

The recorded growth for entry CCCCCCCC(=O)OCC(=O)[C@]1(O)Cc2c(O)c3c(c(O)c2[C@@H](OC2CC(N)C(O)C(C)O2)C1)C(=O)c1c(OC)cccc1C3=O (stereo partly specified) equals -47.9

For record COc1cc(/C=C/[N+](=O)[O-])c([N+](=O)[O-])cc1OC the listed growth is -50

###

# System: EKVX NSCLC
# experimentDescription: NCI-60 one-dose screen, 48 h (100 = growth as untreated, 0 = no growth, -100 = all killed)
# statedConditions: 10 µM unless noted
The panel holds about 83,000 compounds, 20% with a hit somewhere; the sample as a whole holds those more often.
valueType: growth (%)
Write it as a number; the unit % goes unstated.

CCOC(=O)[C@@H](C)C[C@H](Cc1ccccc1)NC(=O)c1csc([C@@H](C[C@H](C(C)C)N(C)C(=O)[C@H](CCC(C)C)NC(=O)[C@H]2CCCCN2C)OC(C)=O)n1 45.6
CC(C)CCC(=O)O[C@H]1CC[C@H]2[C@@H]3CCC4=CC(=O)CC[C@]4(C)[C@H]3CC[C@]12C 73.9
CCOC(=O)[C@@H](C)C[C@H](Cc1ccccc1)NC(=O)c1nc([C@@H](C[C@H](C(C)C)N(C)C(=O)[C@@H](NC(=O)[C@H]2CCCCN2C)C(C)C)OC(C)=O)sc1CCOCc1ccccc1 10.8
CC(=O)OC[C@]1(C)C=C2C(=O)[C@](C)(O)C3(CC3)C(C)=C2[C@H]1OC(=O)N(C)CCN(C)C(=O)OC(C)(C)C -7.18
C=CC[PH+](c1ccccc1)c1ccccc1.C=CC[PH+](c1ccccc1)c1ccccc1.[Cl][Pt][Cl] 50.8

Next, consider the following molecule.
So, COC(=O)[C@@H](C)C[C@H](Cc1ccccc1)NC(=O)c1nc([C@@H](C[C@H](C(C)C)N(C)C(=O)[C@@H](NC(=O)[C@H]2C[C@H](O)CCN2C)C(C)C)OC(C)=O)sc1C(C)C ? Its growth was 35.2
